assayed system: Ex-FABP (Gallus gallus)
Construct: made in house; host or cells: E. coli K-12 BW25113 ΔentB::kan (JW0587) (λDE3), pET21a, periplasmic secretion
protocol: biochemical
Format: binding, chicken
reported metric: Kd (nM)
Express the result in nM but write the number alone.

For Ex-FABP (Gallus gallus), provide Kd of O=C(N[C@H]1COC(=O)[C@@H](NC(=O)c2cccc(O)c2O)COC(=O)[C@@H](NC(=O)c2cccc(O)c2O)COC1=O)c1cccc(O)c1O [apo-Ent, enterobactin] please.
86.2

* * *

assayed system: Ex-FABP (Gallus gallus, UniProt P21760)
Construct: made in house; host or cells: E. coli K-12 BW25113 ΔentB::kan (JW0587) (λDE3), pET21a, periplasmic secretion
Sequence (P21760 21-178): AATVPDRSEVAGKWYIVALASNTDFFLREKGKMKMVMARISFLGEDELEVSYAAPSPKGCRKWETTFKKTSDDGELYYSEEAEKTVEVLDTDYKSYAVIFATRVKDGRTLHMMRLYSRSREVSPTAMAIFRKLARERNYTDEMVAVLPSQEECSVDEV
protocol: biochemical
Assay type: binding, chicken
protocol conditions: ITC, TBS pH 7.4, 30°C, 5 μM lipocalin; read-out: Kd
reported metric: Kd (nM)
Give the quantity in nM, number only.

Query: Kd; subject: O=C(N[C@H]1COC(=O)[C@@H](NC(=O)c2cccc([O-])c2[O-])COC(=O)[C@@H](NC(=O)c2cccc([O-])c2[O-])COC1=O)c1cccc([O-])c1[O-].[Fe+3]
5.3
